Source of measurements: patent US20090130105A1

# system.tested: T1, human IGF-1R(1-903)-Fc (human, UniProt P08069 31-933)
# T1 construct: also called hIGF-1R-Fc; SDWT; not shown: human IgG1 Fc, C-terminal tag
# assay.info: biolayer interferometry (Octet), IGF-1R Fc on Protein A sensors, scFv culture supernatant
# Design: unit not given here
observed.property: Kd (1/sec), off-rate as tabulated (XWU092 = 1.00)

MJF021, C06 (VL/GS3/VH) scFv with VL V15I (scFv, Kabat positions) scFv: DIQMTQSPLSLSASIGDRVTITCQASRDIRNYLNWYQQKPGKAPKLLIYDASSLQTGVPSRFGGSGSGTDFSFTIGSLQPEDIATYYCQQFDSLPHTFGQGTKLEIKGGGGSGGGGSGGGGSEVQLLESGGGLVQPGGSLRLSCAASGFTFSIYRMQWVRQAPGKGLEWVSGISPSGGTTWYADSVKGRFTISRDNSKNTLYLQMNSLRAEDTAVYYCARWSGGSGYAFDIWGQGTMVTVSSDDDKSFLEQKLISEEDLNSAVDHHHHHH ... 0.81

Q) Item under review: MJF026, C06 (VL/GS3/VH) scFv with VL V15S; VH T110V (scFv, name in Kabat numbering, Kabat positions) scFv: DIQMTQSPLSLSASSGDRVTITCQASRDIRNYLNWYQQKPGKAPKLLIYDASSLQTGVPSRFGGSGSGTDFSFTIGSLQPEDIATYYCQQFDSLPHTFGQGTKLEIKGGGGSGGGGSGGGGSEVQLLESGGGLVQPGGSLRLSCAASGFTFSIYRMQWVRQAPGKGLEWVSGISPSGGTTWYADSVKGRFTISRDNSKNTLYLQMNSLRAEDTAVYYCARWSGGSGYAFDIWGQGTMVVVSSDDDKSFLEQKLISEEDLNSAVDHHHHHH . Reported Kd (1/sec), off-rate as tabulated (XWU092 = 1.00)?
A) 0.99
